Source listed as patent US8178506B2.

Tested on: T47D cells
experimental.protocol: Caspase-3 activity assay (apoptosis) in T47D cells
measurement.setup: T47D cells, 200 nM oligomeric compound, 48 hours; experiment of Table 11
In the oligonucleotide strings, read from the 5' end, every base follows the letter of its sugar. An asterisk marks phosphorothioate; unmarked linkages are phosphodiester. Other units and linkages are bracketed, terminal groups are in braces. A string of capitals states the bases alone. e = 2'-O-(2-methoxyethyl) (MOE); [5mC] = 5-methylcytosine; d = 2'-deoxy (DNA)
recorded.metric: Fold Increase over UTC (caspase-3 activity, apoptosis) (fold)
Your answer should be a plain number; it is taken to be in fold.

Solved cases below.
substance: 328376 (eT*e[5mC]*eA*e[5mC]*eA*dA*dT*d[5mC]*d[5mC]*d[5mC]*d[5mC]*dA*d[5mC]*d[5mC]*dA*eA*eA*e[5mC]*eT*e[5mC]; antisense) [compound 328376]
result.units: fold
value: 0.7
--
substance: 328645 (eT*eG*e[5mC]*eT*e[5mC]*dA*dG*d[5mC]*d[5mC]*dA*dG*d[5mC]*d[5mC]*d[5mC]*d[5mC]*eA*eT*eT*e[5mC]*eT) [compound 328645]
result.units: fold
value: 2.2
--
substance: 328411 (antisense eT*eA*e[5mC]*e[5mC]*eT*d[5mC]*dT*dG*d[5mC]*dA*dG*dT*dA*dT*dT*e[5mC]*eT*eA*e[5mC]*eA) [compound 328411]
result.units: fold
value: 0.8

Next:
q: Form entry - test system: T47D cells; read-out: Fold Increase over UTC (caspase-3 activity, apoptosis); substance: 328637 (eG*eG*eT*eT*e[5mC]*d[5mC]*dT*dA*dA*dT*dT*dA*dA*dA*d[5mC]*eA*eA*e[5mC]*e[5mC]*e[5mC]; antisense) [compound 328637]
a: 1.0
